# EXPERIMENTAL_SETUP: in acetone, 285.65 K
ENDPOINT_NAME: solubility (mole fraction)
Answer field: number only, no words.

IN: Fill in the blank: the reported solubility (mole fraction) of CC(C)(C)[C@H](O)[C@H](Cc1ccc(Cl)cc1)n1cncn1 (racemic) is ____.
OUT: 0.0167

====

# EXPERIMENTAL_SETUP: in n-propanol, 298.15 K
ENDPOINT_NAME: solubility (mole fraction)

IN: Fill in the blank: the reported solubility (mole fraction) of CC(C)(C)[C@H](O)[C@H](Cc1ccc(Cl)cc1)n1cncn1 (racemic) is ____.
OUT: 0.0192

Data provenance is BigSolDB 2.1.
